Provide the recorded shrunken log2 fold change for the entries that follow.
system: Escherichia coli TOP10; assay: shrunken log2 fold change of peptide-encoding DNA abundance (4.5 h post-induction vs induction); higher = less antimicrobial activity (less host growth inhibition); details: time post-induction: 4.5 h; library: site-saturation at positions 5, 18, 19, 20;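 further: peptides expressed intracellularly from a pBAD plasmid library in pooled LB shake-flask culture, induced with 0.3% L-arabinose, DNA abundance read by NGS, three biological replicates, DESeq2 with apeglm shrinkage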
Number only, no unit.

So for RRIRVRPPRLPRPRPRPGKDPRP , the logged shrunken log2 fold change turned out to be 0.114

For this sequence ( RRIRHRPPRLPRPRPRPWKYPRP ), measured shrunken log2 fold change is -0.253

Data point: RRIRNRPPRLPRPRPRPLMMPRP ; shrunken log2 fold change = -0.193

get_value(item= RRIRSRPPRLPRPRPRPDFAPRP , readout=shrunken log2 fold change) returns -0.021

shrunken log2 fold change measured on RRIRMRPPRLPRPRPRPRPLPRP = 1.17

shrunken log2 fold change in this record for RRIRRRPPRLPRPRPRPPFRPRP : 0.631

The sequence listed as RRIRFRPPRLPRPRPRPMYLPRP shows shrunken log2 fold change equal to -0.376

Data point: RRIRFRPPRLPRPRPRPWPEPRP ; shrunken log2 fold change = 0.0713

According to the records, this sequence RRIRSRPPRLPRPRPRPWVRPRP displays shrunken log2 fold change of 0.0976

// RRIRFRPPRLPRPRPRPDMRPRP : shrunken log2 fold change value = -0.000242

Record summary for RRIRIRPPRLPRPRPRPHFVPRP : reported shrunken log2 fold change = -0.565

// RRIRIRPPRLPRPRPRPIDRPRP : shrunken log2 fold change value = 0.203

Measured shrunken log2 fold change, RRIRSRPPRLPRPRPRPSKLPRP : -0.398

RRIRKRPPRLPRPRPRPQGQPRP has a reported shrunken log2 fold change of -0.00726

Briefly, shrunken log2 fold change measured for RRIRYRPPRLPRPRPRPQHRPRP : -0.602
